Consider the following binders and their measured MFI at 33.3 nM readings.
- system: T1, human PD-L1 on CHO cells (human, UniProt Q9NZQ7 19-290)
- T1 construct: whole, on cells; CHO cells stably expressing PD-L1; also called huPD-L1
- T1 sequence (Q9NZQ7 19-290): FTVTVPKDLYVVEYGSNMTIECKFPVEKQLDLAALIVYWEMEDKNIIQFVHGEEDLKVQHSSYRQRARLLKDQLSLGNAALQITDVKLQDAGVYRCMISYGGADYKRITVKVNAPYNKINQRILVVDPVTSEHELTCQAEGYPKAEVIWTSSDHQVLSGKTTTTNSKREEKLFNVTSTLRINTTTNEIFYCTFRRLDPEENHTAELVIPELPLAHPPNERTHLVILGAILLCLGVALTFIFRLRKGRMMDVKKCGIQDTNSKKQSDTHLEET
- assaySummary: flow cytometry, CHO cells stably expressing PD-L1
Field: numeric (MFI). Do not append units.

Value lookup for MFI at 33.3 nM; key = variant CD80 IgV-Fc E35D/M47I/N48K/I61F (Fc fusion, not shown: a dimerising Fc or GST) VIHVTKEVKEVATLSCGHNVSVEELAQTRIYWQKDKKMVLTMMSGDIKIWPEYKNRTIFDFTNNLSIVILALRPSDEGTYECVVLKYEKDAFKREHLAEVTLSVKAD 5630

What about CD80 WT IgV-Fc (Fc fusion, not shown: a dimerising Fc or GST, also called WT CD80 IgV-Fc; wild-type CD80 IgV-Fc) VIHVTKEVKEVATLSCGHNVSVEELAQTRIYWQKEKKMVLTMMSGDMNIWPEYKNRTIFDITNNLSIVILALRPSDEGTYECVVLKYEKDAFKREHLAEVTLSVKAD ? 70.3

For the next question, use this binder.
For variant CD80 IgV-Fc H18Y/E35D (Fc fusion, not shown: a dimerising Fc or GST) VIHVTKEVKEVATLSCGYNVSVEELAQTRIYWQKDKKMVLTMMSGDMNIWPEYKNRTIFDITNNLSIVILALRPSDEGTYECVVLKYEKDAFKREHLAEVTLSVKAD , what is its reported MFI at 33.3 nM? 3530
